The following compounds are listed with their measured pEC50 values.
# assayTarget: human S1P1 receptor (Homo sapiens, UniProt P21453)
# Construct: membranes used
# Sequence (P21453 whole entry): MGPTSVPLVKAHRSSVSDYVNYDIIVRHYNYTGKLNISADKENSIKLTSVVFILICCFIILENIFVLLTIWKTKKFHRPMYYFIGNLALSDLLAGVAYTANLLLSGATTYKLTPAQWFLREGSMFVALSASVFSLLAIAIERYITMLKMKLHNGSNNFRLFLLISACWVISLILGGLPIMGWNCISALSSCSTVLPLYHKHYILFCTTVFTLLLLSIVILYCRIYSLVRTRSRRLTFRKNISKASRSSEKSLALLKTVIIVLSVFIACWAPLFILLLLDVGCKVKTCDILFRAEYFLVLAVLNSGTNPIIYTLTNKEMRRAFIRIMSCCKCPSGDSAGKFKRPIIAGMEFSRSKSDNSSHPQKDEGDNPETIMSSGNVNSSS
# testSummary: GTP γ35S binding assay for S1P1 activity
# assaySetup: activity potency, S1P1 receptor from GTP γ35S binding; 5 μg membrane protein; test compounds 0.08 to 5,000 nM; 30 min at 25° C.
# pEC50: negative log10 of molar concentration; output just the value

[
  {
    "compound": "CCc1cc(CNCCCP(=O)(O)O)ccc1-c1nnc(SC(C)c2cccc([N+](=O)[O-])c2)o1 (stereo not shown)",
    "pEC50": 7.52
  },
  {
    "compound": "Cc1cc(CNCCCP(=O)(O)O)ccc1-c1nnc(SC(C)c2cccc([N+](=O)[O-])c2)o1 (stereo not shown)",
    "pEC50": 6.64
  },
  {
    "compound": "CCc1cc(CNCCCP(=O)(O)O)sc1-c1nnc(SC(C)c2cccc([N+](=O)[O-])c2)o1 (stereo not shown)",
    "pEC50": 5.90
  }
]

We now examine a further compound.
Lab note: O=P(O)(O)CCCNCc1ccc(-c2nnc(SCc3cccc(Cl)c3F)o2)cc1 gave pEC50 of 6.07

====

# assayTarget: human S1P1 receptor (Homo sapiens)
# Construct: membranes used
# testSummary: GTP γ35S binding assay for S1P1 activity
# assaySetup: activity potency, S1P1 receptor from GTP γ35S binding; 5 μg membrane protein; test compounds 0.08 to 5,000 nM; 30 min at 25° C.
measurementLabel: pEC50
Entry type: numeric. Quantity: pEC50, the -log10 of concentration in molar units.

Known pEC50 results, listed for orientation:
[
  {
    "compound": "Cc1ccc(-c2nnc(SCc3ccc(CNCCCP(=O)(O)O)cc3)o2)cc1C",
    "experimentalValue": 6.09
  },
  {
    "compound": "O=[N+]([O-])c1cccc(CSc2nnc(-c3ccc(CNCCCP(=O)(O)O)cc3)o2)c1 [Compound 9]",
    "experimentalValue": 5.74
  },
  {
    "compound": "CCC(Sc1nnc(-c2ccc(CNCCCP(=O)(O)O)cc2)o1)c1cccc([N+](=O)[O-])c1 (stereo not shown) [Compound 16]",
    "experimentalValue": 7.40
  }
]

For Cc1ccc(CSc2nnc(-c3ccc(CNCCCP(=O)(O)O)cc3)o2)cc1C [Compound 10] the compound record lists pEC50 as 7.01

The compound listed as Cc1ccc(-c2nnc(SC(C)c3ccc(CNCCCP(=O)(O)O)cc3)o2)cc1C (stereo not shown) shows pEC50 equal to 6.05

The recorded pEC50 for CCC(Sc1nnc(-c2ccc(CNCCCP(=O)(O)O)cc2C)o1)c1cccc([N+](=O)[O-])c1 (stereo not shown) [Compound 7] is 7.30

For reference, reported pEC50 for CC(Sc1nnc(-c2ccc(CNCCCP(=O)(O)O)cc2)o1)c1cccc([N+](=O)[O-])c1 (stereo not shown) [Compound 17] stands at 6.42

====

# assayTarget: human S1P1 receptor (Homo sapiens)
# Construct: expressed in transfected cells; membranes used
# testSummary: GTP γ35S binding assay for S1P1 activity
# Assay type: biochemical
# assaySetup: activity potency, S1P1 receptor from GTP γ35S binding; 5 μg membrane protein; test compounds 0.08 to 5,000 nM; 30 min at 25° C.
measurementLabel: pEC50
// returns pEC50 (minus log10 of molar concentration), number only

Recorded results for 2 compounds are shown here.
[
  {
    "compound": "CCCC(Sc1nnc(-c2ccc(CNCCCP(=O)(O)O)cc2)o1)c1cccc(Cl)c1F (stereo not drawn) [Compound 15]",
    "assayTarget": "human S1P1 receptor (Homo sapiens)",
    "pEC50": 8.74
  },
  {
    "compound": "CCCC(Sc1nnc(-c2ccc(CNCCCP(=O)(O)O)cc2)o1)c1ccccc1 (stereo not drawn) [Compound 14]",
    "assayTarget": "human S1P1 receptor (Homo sapiens)",
    "pEC50": 8.82
  }
]

Consider Cc1cc(CNCCCP(=O)(O)O)sc1-c1nnc(SC(C)c2cccc([N+](=O)[O-])c2)o1 (stereo not drawn) [Compound 27] . Its measured pEC50 is 6.70
